Property: composite z-score; scope: individual compounds
# assay system: Streptavidin (Streptomyces avidinii) (UniProt P22629)
# Sequence (P22629 whole entry, looked up): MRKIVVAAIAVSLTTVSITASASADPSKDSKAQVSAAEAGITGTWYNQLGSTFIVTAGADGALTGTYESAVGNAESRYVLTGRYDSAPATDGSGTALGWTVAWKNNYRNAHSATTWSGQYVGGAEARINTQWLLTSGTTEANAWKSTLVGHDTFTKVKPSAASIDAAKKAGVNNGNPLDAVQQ
# protocol: streptavidin binders on small-molecule microarray, primary screen, artefact control for SMM compound annotation, biophysical, 635/667 nm fluorescence (AID 1147);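 further: signal reflects streptavidin binding to arrayed compounds as a control protein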
# run parameters: streptavidin binding, higher = more signal
Give the value as a plain number.

Past entries and their recorded results:
COC(=O)[C@@]1(CCC(=O)OC(C)(C)C)N=C(c2ccc(OCCCO)cc2)O[C@H]1c1ccccc1CN=[N+]=[N-] = -0.139
CC(C)C[C@H]1NC(=O)[C@@H](C)NC(=O)[C@@]23C(=O)N[C@@H](Cc4ccccc4)C2[C@H](C)[C@@]2(C)O[C@H]2C3/C=C/C/C=C\CNC1=O (some centres undefined) = -0.535
O=C1N(Cc2ccccc2)c2ccccc2[C@H]2OC(c3ccc(OCCCO)cc3)=N[C@@]12Cc1ccccc1 = 0.0454

Q: Fill in reported composite z-score for this entry: C[C@H]1C2[C@H](Cc3ccccc3)NC(=O)[C@]23C(=O)NCC(=O)N2CCC[C@H]2C(=O)NC/C=C\C/C=C/C3[C@@H]2O[C@]12C (some centres undefined)
A: -0.744

====

# assay system: NADPH oxidase 2 (Homo sapiens)
# protocol: NOX2-dependent H2O2 signal modulators, primary screen, NOX inhibitor project, cell-based, HEK293-NOX2, PMA-stimulated, Amplex Red fluorescence (AID 1159); further: test concentration not given here
# run parameters: 45 min, higher = more signal, called active from +8 up or from −8 down
Lab note: anything with z-score at or over -0.9 counts as MET; the rest go in NOT MET.

Below are worked cases with known answers.
Cc1ccc(S[C@]2(C(=O)NCCN3CCOCC3)CC(=O)N(C3CCCCC3)[C@@H]2c2ccc(CO)cc2I)cc1 = MET
CC(=O)n1cc(C(O)C2C=CC3C(=O)N(c4ccccc4)C(=O)C3N2Nc2ccccc2F)c2ccccc21 (configuration not stated) = NOT MET
Cc1ccc(S[C@]2(C(=O)NCC(F)(F)F)CC(=O)N(C3CCCCC3)[C@@H]2c2ccc(CO)cc2)cc1 = NOT MET
CC(C)c1ccc(NN2C(C(O)C(C)C)C=CC3C(=O)N(c4ccccc4)C(=O)C32)cc1 (configuration not stated) = MET
NC(=O)NCC#Cc1ccc2c(c1)[C@]1(C(=O)N2)[C@H](C(=O)N2CCCCCCC2)[C@H]2C(=O)O[C@H](c3ccccc3)[C@H](c3ccccc3)N2[C@@H]1c1ccc(O)cc1 = MET

Q: // inclusive: z-score at least -0.9? input: CC(C)C[C@@H]1NC(=O)[C@@]23C(=O)N[C@@H](Cc4ccccc4)C2[C@H](C)[C@@]2(C)O[C@H]2C3/C=C/C/C=C\CNC(=O)[C@@H](CC(C)C)NC1=O (some centres not stated)
A: MET

Q: // inclusive: z-score at least -0.9? input: CC1CC/C=C\[C@H]2OC34C=CCN(c5ccc(Cl)cc5)C(=O)[C@H]3N(CCCO)C(=O)[C@]4(C)C2C(=O)O1 (some centres not stated)
A: MET

====

# protocol: basal MM1S mitochondrial membrane potential changes, profiling panel, cell-based, JC-1 fluorescence, 24 h, 100 nL compound (AID 1170); further: test concentration not given here
# run parameters: higher = more signal
Property: z-score; scope: individual compounds
Give the value as a plain number.

Past entries and their recorded results:
C=CCC(OC(C)=O)[C@@H]1[C@@H](N(Cc2ccc(-c3cccc(C(F)(F)F)c3)o2)C(=O)Cc2ccc(F)cc2)c2cc(OCCCO)ccc2N1C(=O)c1ccc2ccccc2c1 (some centres not stated) = 0.251
C=C(COC)C(=O)CC[C@@H](OC(=O)c1cccnc1)c1cccc(OCCO)c1 = -1.78
COC(=O)C1=CC(CCCO)=CC(C2CC2)N(Cc2cccc(OC(F)(F)F)c2)C=C1C(=O)OC (configuration not stated) = -0.159
O=C1OCCC=C[C@H]2OC34C=CCN(CCN5CCOCC5)C(=O)[C@H]3N(CCCO)C(=O)[C@@H]4C12 (some centres not stated) = -0.139

Q: Fill in reported z-score for this entry: CC(c1ccccc1)C(O)C1C=CC2C(=O)N(c3ccccc3)C(=O)C2N1Nc1ccc(C#N)cc1 (configuration not stated)
A: 0.222

Q: Fill in reported z-score for this entry: COCCOC(=O)N1C(=O)[C@@]2(c3cc(C#CCC(C(=O)OC)C(=O)OC)ccc31)[C@H](C(=O)N1CCCCCCC1)[C@H]1C(=O)O[C@H](c3ccccc3)[C@H](c3ccccc3)N1[C@@H]2c1ccccc1OCCO
A: -0.892

Q: Fill in reported z-score for this entry: COC(=O)[C@@]1(Cc2ccc(OC)cc2)[C@H]2c3cc(C(=O)N4CCCC4)n(CCc4ccc(OC)c(Br)c4)c3C[C@H]2CN1C(=O)c1ccccc1
A: -0.569
